biological target: Integrin alpha-V/beta-3 (Homo sapiens, UniProt P05106+P06756); test: Displacement of [125I]echistatin from human integrin […] expressed in human A549 cells by binding assay
Sequence (P05106 27-788 limits assumed): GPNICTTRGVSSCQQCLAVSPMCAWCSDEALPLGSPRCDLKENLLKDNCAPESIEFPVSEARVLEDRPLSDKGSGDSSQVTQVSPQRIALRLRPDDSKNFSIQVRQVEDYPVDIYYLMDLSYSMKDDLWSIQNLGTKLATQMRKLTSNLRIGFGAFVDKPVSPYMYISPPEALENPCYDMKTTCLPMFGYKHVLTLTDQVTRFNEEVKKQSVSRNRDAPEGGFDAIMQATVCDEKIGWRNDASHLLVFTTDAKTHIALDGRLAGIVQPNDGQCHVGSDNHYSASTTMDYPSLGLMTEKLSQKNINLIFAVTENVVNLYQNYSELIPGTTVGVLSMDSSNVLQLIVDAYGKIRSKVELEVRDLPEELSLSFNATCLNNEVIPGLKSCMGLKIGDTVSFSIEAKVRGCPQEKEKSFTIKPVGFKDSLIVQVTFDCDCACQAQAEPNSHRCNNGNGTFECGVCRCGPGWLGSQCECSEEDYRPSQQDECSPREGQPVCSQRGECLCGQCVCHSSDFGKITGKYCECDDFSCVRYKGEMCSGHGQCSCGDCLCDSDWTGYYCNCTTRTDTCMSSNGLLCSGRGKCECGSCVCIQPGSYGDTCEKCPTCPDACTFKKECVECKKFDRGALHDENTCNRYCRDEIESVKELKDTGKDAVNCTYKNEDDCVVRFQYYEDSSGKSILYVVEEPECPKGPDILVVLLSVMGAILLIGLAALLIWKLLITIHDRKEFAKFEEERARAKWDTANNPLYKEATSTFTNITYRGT
Sequence (P06756 31-889 limits assumed): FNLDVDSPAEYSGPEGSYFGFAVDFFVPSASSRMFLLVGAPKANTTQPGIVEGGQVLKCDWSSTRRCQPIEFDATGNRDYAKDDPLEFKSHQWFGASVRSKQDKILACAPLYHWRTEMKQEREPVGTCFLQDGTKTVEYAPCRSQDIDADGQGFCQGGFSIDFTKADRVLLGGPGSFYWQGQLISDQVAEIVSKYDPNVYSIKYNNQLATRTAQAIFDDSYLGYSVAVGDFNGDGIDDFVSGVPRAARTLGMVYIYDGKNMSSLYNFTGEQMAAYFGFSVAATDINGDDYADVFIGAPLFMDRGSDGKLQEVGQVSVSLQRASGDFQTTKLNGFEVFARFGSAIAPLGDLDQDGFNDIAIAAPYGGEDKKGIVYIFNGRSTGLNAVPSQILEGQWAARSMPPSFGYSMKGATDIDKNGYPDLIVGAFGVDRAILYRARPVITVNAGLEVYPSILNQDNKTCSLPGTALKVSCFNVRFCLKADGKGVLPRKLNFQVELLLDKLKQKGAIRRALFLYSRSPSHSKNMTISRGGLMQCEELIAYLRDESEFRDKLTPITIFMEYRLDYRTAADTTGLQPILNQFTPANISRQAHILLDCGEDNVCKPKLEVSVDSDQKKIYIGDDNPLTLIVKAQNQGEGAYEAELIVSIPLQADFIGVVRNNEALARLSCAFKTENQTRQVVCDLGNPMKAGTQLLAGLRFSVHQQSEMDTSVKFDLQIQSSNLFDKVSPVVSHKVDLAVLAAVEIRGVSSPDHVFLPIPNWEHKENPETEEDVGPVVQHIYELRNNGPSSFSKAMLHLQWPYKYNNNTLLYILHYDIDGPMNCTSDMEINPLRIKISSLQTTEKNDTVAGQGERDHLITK
Sequence (P06756 891-1048 limits assumed): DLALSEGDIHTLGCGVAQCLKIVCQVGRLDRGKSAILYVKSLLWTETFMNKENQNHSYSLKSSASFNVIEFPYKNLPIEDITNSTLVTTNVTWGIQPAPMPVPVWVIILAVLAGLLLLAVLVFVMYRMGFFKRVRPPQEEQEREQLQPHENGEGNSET
Bridge positions count the residues as written; N and C are the ends. Peptide text beside a SMILES is read from it. * marks the point of attachment. Cypate = CC1(C)C(/C=C/C=C/C=C/C=C2/N(CCC(=O)*)c3ccc4ccccc4c3C2(C)C)=[N+](CCC(=O)O)c2ccc3ccccc3c21
Consider the following molecules and their measured IC50 readings.

Sample answers from the record:
• CC1(C)C(/C=C/C=C/C=C/C=C2/N(CCC(=O)N[C@H]3CSSC[C@@H](C(N)=O)NC(=O)[C@H](CC(=O)O)NC(=O)[C@@H]4CCCN4C(=O)[C@H](CCCNC(=N)N)NC3=O)c3ccc4ccccc4c3C2(C)C)=[N+](CCC(=O)O)c2ccc3ccccc3c21 (Cypate-CRPDC-NH2; disulfide 1-5) = > 10 µM
• CC(C)[C@@H]1NC(=O)[C@H](CCCNC(=N)N)NC(=O)[C@@H](NC(=O)CCN2/C(=C/C=C/C=C/C=C/C3=[N+](CCC(=O)O)c4ccc5ccccc5c4C3(C)C)C(C)(C)c3c2ccc2ccccc32)CSSC[C@@H](C(N)=O)NC(=O)[C@H](CC(=O)O)NC1=O (Cypate-CRVDC-NH2; disulfide 1-5) = > 10 µM
• CC1(C)C(/C=C/C=C/C=C/C=C2/N(CCC(=O)NCCCC[C@@H]3NC(=O)[C@@H](Cc4ccccc4)NC(=O)[C@H](CC(=O)O)NC(=O)CNC(=O)[C@H](CCCNC(=N)N)NC3=O)c3ccc4ccccc4c3C2(C)C)=[N+](CCC(=O)O)c2ccc3ccccc3c21 = 0.72 µM

Notebook: pull reported IC50 for Integrin alpha-V/beta-3 (Homo sapiens, UniProt P05106+P06756), entry CC1(C)C(/C=C/C=C/C=C/C=C2/N(CCC(=O)N[C@H]3CSSC[C@@H](C(N)=O)NC(=O)[C@H](CC(=O)O)NC(=O)[C@H](Cc4ccc(O)cc4)NC(=O)[C@H](CCCNC(=N)N)NC3=O)c3ccc4ccccc4c3C2(C)C)=[N+](CCC(=O)O)c2ccc3ccccc3c21 (Cypate-CRYDC-NH2; disulfide 1-5)
> 10 µM
